Record form. Attribute: pIC50. Fill in for each entry.
molecular target: catalytic domain 2 (CD2) of HDAC6 (Homo sapiens (Human)); assay: Cellular target engagement assay - NanoBRET; settings: NanoLuc-HDAC6(CD2) in HEK293T cells, 2 hours, read-out: IC50 (HDAC6(CD2) interaction)
Sequence (Q9UBN7 482-800): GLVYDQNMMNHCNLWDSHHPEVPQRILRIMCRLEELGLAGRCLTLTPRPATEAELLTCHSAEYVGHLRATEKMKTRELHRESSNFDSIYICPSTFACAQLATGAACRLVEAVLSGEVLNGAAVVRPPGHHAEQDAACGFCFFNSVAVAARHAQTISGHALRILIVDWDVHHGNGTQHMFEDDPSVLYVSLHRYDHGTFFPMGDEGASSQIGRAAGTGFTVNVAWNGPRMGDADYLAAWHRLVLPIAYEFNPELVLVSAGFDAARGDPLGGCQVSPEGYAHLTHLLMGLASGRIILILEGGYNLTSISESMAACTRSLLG
pIC50: −log10 of the molar value.

Recorded pIC50, per entry:
| Compound | Target Or Test System | pIC50 |
| --- | --- | --- |
| Cc1nc(SCC(=O)c2ccc(CNC(=O)CO)s2)c2cc(C(F)(F)F)cc(N(C)C)c2n1 [Compound 150] | catalytic domain 2 (CD2) of HDAC6 (Homo sapiens (Human)) | ≥ 7.00 |
| COc1cc2c(SCC(=O)c3ccc(CN(C)C(=O)CO)s3)nc(C(F)(F)F)nc2cn1 [Compound 159] | catalytic domain 2 (CD2) of HDAC6 (Homo sapiens (Human)) | ≥ 7.00 |
| COc1ccc2nc(C)nc(SCC(=O)c3ccc(CNC(=O)C4CN(C)C4)s3)c2c1 [Compound 178] | catalytic domain 2 (CD2) of HDAC6 (Homo sapiens (Human)) | ≥ 7.00 |
| Cc1nc(SCC(=O)c2ccc(CNC(=O)CO)s2)c2cc(N(C)C)ncc2n1 [Compound 149] | catalytic domain 2 (CD2) of HDAC6 (Homo sapiens (Human)) | ≥ 7.00 |

Give pIC50 for each listed item.
1. Cc1nc(SCC(=O)c2ccc(CNC(=O)C(C)(C)C)s2)c2ncccc2n1 [Example 18]
2. COc1ccc2nc(C)nc(SCC(=O)c3ccc(CNC(=O)[C@@H](C)O)s3)c2c1 [Compound 186]
3. COc1ccc2nc(C(F)F)nc(SCC(=O)c3ccc(CNC(=O)CO)s3)c2c1 [Compound 139]

### Response
1. 6.30 to 7.00
2. 6.30 to 7.00
3. 6.30 to 7.00

Give pIC50 for each listed item.
1. COc1ccc2nc(SCC(=O)c3ccc(CNC(=O)CO)s3)[nH]c2n1 [Example 173]
2. COc1cc(C(F)(F)F)cc2c(SCC(=O)c3ccc(CNC(=O)CO)s3)nc(C)nc12 [Compound 148]

### Response
1: 5.00 to 6.00; 2: ≥ 7.00
